target: Gamma-secretase; assay: Inhibition of gamma-secretase-mediated notch cleavage in human IMR-32 cells after 2 hrs by ELISA; assay type: cell-based
Observation type: IC50 (nM)

A selection of reference data follows.
1) CCOC(=O)C1c2c[nH]nc2CCN1S(=O)(=O)c1ccc(Cl)cc1 (stereo not given); 204
2) CCOC(=O)C1Cc2n[nH]cc2CN1S(=O)(=O)c1ccc(Cl)cc1 (stereo not given); 5850
3) CC[C@@H]1c2c[nH]nc2C[C@H](c2ccc(Cl)cc2)N1S(=O)(=O)c1ccc(Cl)cc1 (racemic); 126
4) CN(C)C(=O)OCC1c2c[nH]nc2CCN1S(=O)(=O)c1ccc(Cl)cc1 (racemic); 8250
5) O=S(=O)(c1ccc(Cl)cc1)N1CCc2n[nH]cc2C1c1nccs1 (racemic); 858

[I] CC[C@H]1Cc2n[nH]cc2CN1S(=O)(=O)c1ccc(Cl)cc1 (racemic)
[II] O=S(=O)(c1ccc(Cl)cc1)N1CCc2n[nH]cc2C1CO (stereo not given)
Input: Among I and II , whose measured IC50 is the smaller figure? Response format: the label of the selected entry.
Output: I

[a] O=S(=O)(c1ccc(Cl)cc1)N1Cc2cn[nH]c2CC1c1cccc(F)c1 (racemic)
[b] CC(C)C1Cc2n[nH]cc2CN1S(=O)(=O)c1ccc(Cl)cc1 (racemic)
Input: Among a and b , whose measured IC50 is the smaller figure? Response format: the label of the selected entry.
Output: b

---

target: Gamma-secretase; assay: Inhibition of gamma-secretase-mediated APP cleavage in human IMR-32 cells assessed as amyloid beta40 level after 2 hrs by ELISA; assay type: cell-based
Observation type: IC50 (nM)

1. CC1CCCCN1S(=O)(=O)c1ccc(Cl)cc1 (racemic); 8280
2. CC[C@H]1Cc2n[nH]cc2[C@@H](CC)N1S(=O)(=O)c1ccc(Cl)cc1 (racemic) [ENT A]; 0.48
3. CCOC(=O)C1c2c[nH]nc2CCN1S(=O)(=O)c1ccc(Cl)cc1 (stereo not given); 10.2

[A] CCC1CCCCN1S(=O)(=O)c1ccc(Cl)cc1 (racemic)
[B] CN(C)C(=O)OCC1c2c[nH]nc2CCN1S(=O)(=O)c1ccc(Cl)cc1 (racemic)
Input: I'd appreciate it if you could identify which of A and B has the greater IC50. Response format: the label of the selected entry.
Output: A

---

experiment: Ratio of drug level in FVB mouse brain to plasma; assay type: ADME, cell-free
Observation type: Kp
Quick one: just the number, no unit, thanks!

Input: Kp for CC[C@H]1Cc2n[nH]cc2[C@@H](CC)N1S(=O)(=O)c1ccc(Cl)cc1 [ENT A] ?
Output: 0.8

---

biological target: Gamma-secretase; assay: Inhibition of gamma-secretase-mediated notch cleavage in human SNC cells by ELISA; type: cell-based
Observation type: IC50 (µM)

A selection of reference data follows.
1) CC(C)C1Cc2n[nH]cc2CN1S(=O)(=O)c1ccc(Cl)cc1 (racemic); 6.76
2) O=S(=O)(c1ccc(Cl)cc1)N1CCc2[nH]ncc2C1c1cncnc1 (configuration not stated); 2.31
3) O=S(=O)(c1ccc(Cl)cc1)N1CCc2n[nH]cc2C1c1nccs1 (racemic); 6.53
4) CC[C@H]1Cc2n[nH]cc2CN1S(=O)(=O)c1ccc(Cl)cc1 (racemic); 0.736
5) O=S(=O)(c1ccc(Cl)cc1)N1Cc2cn[nH]c2CC1c1ccc(Cl)cc1 (racemic); 2.59
6) O=S(=O)(c1ccc(Cl)cc1)N1Cc2c[nH]nc2CC1Cc1ccccc1 (racemic); 16.6

[P] CC[C@H]1Cc2n[nH]cc2[C@@H](CC)N1S(=O)(=O)c1ccc(Cl)cc1.Cl
[Q] O=S(=O)(c1ccc(Cl)cc1)N1Cc2c[nH]nc2CC1c1cc(F)cc(F)c1 (racemic)
Input: I'd appreciate it if you could identify which of P and Q has the greater IC50. Response format: the label of the selected entry.
Output: Q

// provenance: ChEMBL document CHEMBL1156315
